Quick reference for thermal shift delta Tm among some compounds
System: LOC_OS01G10900-cb004
Experiment: thermal shift delta Tm vs DMSO control; higher = stronger stabilization (binding);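 note: purified Escherichia coli-expressed rice kinase domain construct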
Details: 12.5 µM; protein concentration 2 µM
Number only, in °C; omit the unit.

Below, each entry is followed by its recorded thermal shift delta Tm result.
compound=O=C(NCc1cccc(O)c1)Nc1nc(-c2ccncc2)cs1 readoutvalue=0.6
compound="CN(C)C/C=C/C(=O)Nc1cc2c(Nc3ccc(F)c(Cl)c3)ncnc2cc1O[C@H]1CCOC1 [Afatinib (BIBW2992)]" readoutvalue=4
compound="COc1cc(F)c(F)c(Nc2ccc(I)cc2F)c1NS(=O)(=O)C1(C[C@H](O)CO)CC1 [Refametinib (RDEA119, Bay 86-9766)]" readoutvalue=0.47

Below: the item to evaluate.
State the recorded thermal shift delta Tm for this entry: CNC(=O)c1nn(C)c2c1C(C)(C)Cc1cnc(Nc3ccc(N4CCN(C)CC4)cc3)nc1-2
7.64

###

Test system: LOC_OS01G60330-cb001
Assay: thermal shift delta Tm vs DMSO control; higher = stronger stabilization (binding)
Conditions: 12.5 µM; protein concentration 2 µM
propertyMeasured: thermal shift delta Tm
Please state the value followed by its unit.

Notebook entry, LOC_OS01G60330-cb001 assay: thermal shift delta Tm of Cc1ccc(NC(=O)Nc2cc(C(F)(F)F)ccc2F)cc1Nc1ccc2c(c1)NC(=O)/C2=C\c1ccc[nH]1 = ?
1.66 °C

Find the measured thermal shift delta Tm: item Cc1ccc(NC(=O)c2cccc(C(C)(C)C#N)c2)cc1Nc1ccc2ncn(C)c(=O)c2c1 , target or system LOC_OS01G60330-cb001.
0.66 °C

Give LOC_OS01G60330-cb001 thermal shift delta Tm for O=C(Nc1nc2cccc(-c3ccc(CN4CCS(=O)(=O)CC4)cc3)n2n1)C1CC1
2.66 °C

I'm curious: which thermal shift delta Tm was measured for Cc1cc(Nc2cc(Cl)nc(Oc3ccc([N+](=O)[O-])cc3)n2)n[nH]1 tested on LOC_OS01G60330-cb001?
0.66 °C

###

Tested on: LOC_OS02G17970-cb001
Experiment: thermal shift delta Tm vs DMSO control; higher = stronger stabilization (binding)
Conditions: 12.5 µM; protein concentration 2 µM
Measured thermal shift delta Tm by item
Give just the numeric value; °C need not be written.

compound=COc1ccc(CC(=O)Nc2nc3c(s2)CCc2ccccc2-3)cc1OC propertymeasured="thermal shift delta Tm" unittag=°C readoutvalue=0.81
compound=C[C@@H]1CN(CC(=O)Nc2ccc3c(c2)Cc2cccc(-c4cc(=O)cc(N5CCOCC5)o4)c2S3)C[C@H](C)O1 propertymeasured="thermal shift delta Tm" unittag=°C readoutvalue=0.49
compound=Cc1cc(CS(=O)(=O)c2ccccc2)cc(OCc2ccc(CN3CCC[C@@H]3CO)cc2)c1 propertymeasured="thermal shift delta Tm" unittag=°C readoutvalue=0.96
compound=COc1cc(N2CCN(C)CC2)ccc1Nc1ncc2c(n1)N(C)c1ccccc1C(=O)N2 propertymeasured="thermal shift delta Tm" unittag=°C readoutvalue=0.53
compound="CN(C)C/C=C/C(=O)Nc1cc2c(Nc3ccc(F)c(Cl)c3)ncnc2cc1O[C@H]1CCOC1 [Afatinib (BIBW2992)]" propertymeasured="thermal shift delta Tm" unittag=°C readoutvalue=-0.15
compound=CC(C)c1cnn2c(NCc3ccccc3)cc(NCCCCCCN)nc12 propertymeasured="thermal shift delta Tm" unittag=°C readoutvalue=0.24
compound="Cc1ccc(-n2nc(C(C)(C)C)cc2NC(=O)NCc2cc(F)ccc2Oc2ccc3c(cnn3CCO)c2)cc1 [Pexmetinib (ARRY-614)]" propertymeasured="thermal shift delta Tm" unittag=°C readoutvalue=1.52
compound=COc1cc2ncnc(Nc3cccc(Cl)c3F)c2cc1OC(=O)N1CCN(C)C[C@H]1C propertymeasured="thermal shift delta Tm" unittag=°C readoutvalue=0.79

For the record CS(=O)(=O)c1ccc(-c2cnc(N)c(C(=O)Nc3ccccc3)n2)cc1 , what value of thermal shift delta Tm is listed for LOC_OS02G17970-cb001?
-0.36

###

System: LOC_OS01G14860-cb001
Assay: thermal shift delta Tm vs DMSO control; higher = stronger stabilization (binding)
Settings: 12.5 µM; protein concentration 2 µM
Counter-ions that a name gives are not always drawn.
propertyMeasured: thermal shift delta Tm (°C)
Use °C as the unit, but write only the number.

Example cases with answers are listed next.
compound=CC(C)(C)S(=O)(=O)c1ccc2nccc(Nc3n[nH]c4ccc(F)cc34)c2c1 readoutvalue=0.3
compound="CN1CCN(C2CCN(C(=O)Nc3cc(Oc4ccc(NC(=O)C5(C(=O)Nc6ccc(F)cc6)CC5)c(F)c4)ccn3)CC2)CC1 [Golvatinib (E7050)]" readoutvalue=0.62
compound="CN1CC[C@H](c2c(O)cc(O)c3c(=O)cc(-c4ccccc4Cl)oc23)[C@H](O)C1 [Flavopiridol HCl]" readoutvalue=4.95
compound=COc1ccc(CNC(=O)Nc2ncc([N+](=O)[O-])s2)cc1 readoutvalue=3.27
compound=CN(C)Cc1cccc(N/C(=C2\C(=O)Nc3cc(C(N)=O)ccc32)c2ccccc2)c1 readoutvalue=0.65

Item COc1ccc(-c2ccc3c(N4CCOC[C@@H]4C)nc(N4CCOC[C@@H]4C)nc3n2)cc1CO has what recorded thermal shift delta Tm?
0

If you can, please state the reported thermal shift delta Tm value of COc1cc2ncnc(Oc3ccc(CC(=O)Nc4cnn(C(C)C)c4)cc3)c2cc1OC .
0.03

Given the compound COc1cc(N2CCC(N(C)C)CC2)ccc1Nc1ncc(Cl)c(Nc2ccccc2P(C)(C)=O)n1 , what is its reported thermal shift delta Tm?
0.31

// lookup thermal shift delta Tm for CN1CCN(c2ccc(C(=O)Nc3n[nH]c4ccc(Cc5cc(F)cc(F)c5)cc34)c(NC3CCOCC3)c2)CC1 [Entrectinib (RXDX-101)]
0.18

Looking for the measured thermal shift delta Tm of Nc1ccc(-c2ccc3ncc4ccc(=O)n(-c5cccc(C(F)(F)F)c5)c4c3c2)cn1 , can you help?
2.07

###

Tested on: LOC_OS03G12390-cb001
Assay: thermal shift delta Tm vs DMSO control; higher = stronger stabilization (binding)
Conditions: 12.5 µM; protein concentration 2 µM
Readings of thermal shift delta Tm for the listed compounds
# output: number + unit

compound=CNC(=O)c1cccc(-c2ccc3c(N4CCOC[C@@H]4C)nc(N4CCOC[C@@H]4C)nc3n2)c1 readoutvalue="-0.33 °C"
compound="Cc1cccc(Nc2nc(NC3CCCCC3N)ncc2C(N)=O)c1 (configuration not stated)" readoutvalue="2.43 °C"

Which thermal shift delta Tm value is on record for Cc1cn(-c2cc(NC(=O)c3ccc(C)c(Nc4nccc(-c5cnccn5)n4)c3)cc(C(F)(F)F)c2)cn1 ?
0.26 °C

# get_value(readout='thermal shift delta Tm', item= C=CC(=O)N1CCC(Oc2cc3c(Nc4ccc(Cl)c(Cl)c4F)ncnc3cc2OC)CC1 [Poziotinib (HM781-36B)] )
3.61 °C

I would be grateful if you could share the reported thermal shift delta Tm for O=c1c(O)c(-c2cc(O)c(O)c(O)c2)oc2cc(O)cc(O)c12 .
1.2 °C

Could you share which thermal shift delta Tm value was measured for COc1cc(Nc2ncc(F)c(Nc3ccc4c(n3)N(COP(=O)(O)O)C(=O)C(C)(C)O4)n2)cc(OC)c1OC [Fostamatinib (R788)] ?
7.17 °C

Can you look up the measured thermal shift delta Tm of CCS(=O)(=O)c1cccc(-c2cc(C(=O)NC3CCN(C)CC3)c(C)c3[nH]c4ncc(C)cc4c23)c1 for me?
6.67 °C

###

System: LOC_OS01G60330-cb001
Assay: thermal shift delta Tm vs DMSO control; higher = stronger stabilization (binding)
Conditions: 12.5 µM; protein concentration 2 µM
propertyMeasured: thermal shift delta Tm (°C)
Enter your answer as a number in °C; do not include the unit.

smiles=CN1CCN(Cc2ccc(NC(=O)Nc3ccc(Oc4ccnc(N)n4)cc3)cc2C(F)(F)F)CC1 propertymeasured="thermal shift delta Tm" unittag=°C readoutvalue=0.73
smiles=Cc1[nH]nc2ccc(-c3cncc(OC[C@@H](N)Cc4ccccc4)c3)cc12 propertymeasured="thermal shift delta Tm" unittag=°C readoutvalue=0.68
smiles=C=CC(=O)Nc1ccc2ncnc(Nc3cccc(Br)c3)c2c1 propertymeasured="thermal shift delta Tm" unittag=°C readoutvalue=0.41
smiles=O=C1NC(=O)C(c2cnc3ccccn23)=C1c1cn2c3c(cc(F)cc13)CN(C(=O)N1CCCCC1)CC2 propertymeasured="thermal shift delta Tm" unittag=°C readoutvalue=3.68
smiles=Cn1c(=O)c(Oc2ccc(F)cc2F)cc2cnc(NC(CCO)CCO)nc21 propertymeasured="thermal shift delta Tm" unittag=°C readoutvalue=0.87
smiles=CCCS(=O)(=O)Nc1ccc(F)c(C(=O)c2c[nH]c3ncc(-c4ccc(Cl)cc4)cc23)c1F propertymeasured="thermal shift delta Tm" unittag=°C readoutvalue=10.2
smiles=Nc1ncc(-c2ccnc(Nc3ccncc3)n2)c(CC2CC2)n1 propertymeasured="thermal shift delta Tm" unittag=°C readoutvalue=1.45
smiles=O=S(=O)(c1cccc2c(I)cccc12)N1CCCNCC1 propertymeasured="thermal shift delta Tm" unittag=°C readoutvalue=-0.01

Please examine the following record next.
# thermal shift delta Tm lookup, item CC(C)CC(=O)Nc1n[nH]c2c1CN(C(=O)C1CCN(C)CC1)C2(C)C
1.35
